- EXPERIMENTAL TARGET: T1, human IL-18BP (human, UniProt O95998 31-194)
- T1 construct: UniProt printed as 095998; also called hIL-18BP
- T1 sequence: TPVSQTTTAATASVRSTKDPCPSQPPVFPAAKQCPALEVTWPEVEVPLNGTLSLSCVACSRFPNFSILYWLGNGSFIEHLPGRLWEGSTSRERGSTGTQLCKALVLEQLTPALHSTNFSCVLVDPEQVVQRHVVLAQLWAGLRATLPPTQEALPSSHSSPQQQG
- PROTOCOL TEXT: BLI, apparent KD
# pKd per entry
Value format note: pKd is -log10 of concentration (mol/L); just state the number.

SA301a HC-N58S (antibody, name in Kabat numbering, V domains shown, IgG1 kappa) VH: QVQLQESGPGLVKPSQTLSLTCTVSGYSITSDYNSHWIRQPPGKGLEWIGYIHYSGSTSYNPSLKSRVTISRDTSKNQFSLKLSSVTAADTAVYYCARNYGSIYVNYFDYWGQGTLVTVSS VL: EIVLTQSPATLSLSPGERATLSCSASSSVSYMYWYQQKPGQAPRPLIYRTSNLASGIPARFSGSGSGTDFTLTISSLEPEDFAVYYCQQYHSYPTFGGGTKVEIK | 8.86

Now examine the next entry.
The recorded pKd for entry SA301a HC-N58V (antibody, name in Kabat numbering, V domains shown, IgG1 kappa) VH: QVQLQESGPGLVKPSQTLSLTCTVSGYSITSDYNSHWIRQPPGKGLEWIGYIHYSGSTVYNPSLKSRVTISRDTSKNQFSLKLSSVTAADTAVYYCARNYGSIYVNYFDYWGQGTLVTVSS VL: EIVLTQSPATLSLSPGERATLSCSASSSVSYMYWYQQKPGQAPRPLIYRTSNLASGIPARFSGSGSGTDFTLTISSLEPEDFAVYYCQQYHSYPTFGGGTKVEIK equals 9.36
